Tested on: A549
MEASUREMENT PROTOCOL: Cytotoxicity against human A549 cells assessed as reduction in cell viability after 24 hrs by MTT assay
Format: functional, cell-based
RUN CONDITIONS: A549, 24 h
pIC50: −log10 of the molar value.
A collection of molecules and their measured pIC50

| MOLECULE | STUDY TARGET | pIC50 |
| --- | --- | --- |
| Cc1ccc(-c2nnc(C(NCc3ccccc3)c3ccc[nH]3)o2)cc1 (stereo not given) | A549 | 3.13 |
| COc1ccc(-c2nnc(C(NCc3ccccc3)c3ccc[nH]3)o2)cc1 (stereo not given) | A549 | 3.49 |
| COc1ccc(-c2nnc(C(NCc3ccccc3)c3ccc[nH]3)o2)c(OC)c1 (stereo not given) | A549 | 3.53 |
| COc1ccc(CNC(c2ccc[nH]2)c2nnc(-c3cccc(Cl)c3)o2)cc1 (stereo not given) | A549 | 4.11 |
| Clc1ccc(-c2nnc(C(NCc3ccccc3)c3ccc[nH]3)o2)cc1Cl (stereo not given) | A549 | 4.59 |

###

Test system: A549
MEASUREMENT PROTOCOL: Cytotoxicity against human A549 cells assessed as reduction in cell viability after 24 hrs by MTT assay
Type: functional, cell-based
RUN CONDITIONS: A549, 24 h
Measured IC50, listed per entry for reference.

| MOLECULE | STUDY TARGET | IC50 |
| --- | --- | --- |
| Clc1ccc(CNC(c2ccc[nH]2)c2nnc(-c3ccc(Br)cc3)o2)cc1Cl (stereo not drawn) | A549 | 17.3 µM |
| Clc1cccc(-c2nnc(C(NCc3ccc(Cl)c(Cl)c3)c3ccc[nH]3)o2)c1 (stereo not drawn) | A549 | 13.3 µM |
| Brc1ccc(-c2nnc(C(NCc3ccccc3)c3ccc[nH]3)o2)cc1 (stereo not drawn) | A549 | 87.2 µM |

###

The reader will find reported pIC50 values listed item by item below.
System: A549
MEASUREMENT PROTOCOL: Cytotoxicity against human A549 cells assessed as reduction in cell viability after 24 hrs by MTT assay
Assay type: functional, cell-based
RUN CONDITIONS: A549, 24 h
pIC50: −log10 of the molar value.

| MOLECULE | pIC50 |
| --- | --- |
| COc1cccc2c1C(=O)c1c(O)c3c(c(O)c1C2=O)C[C@@](O)(C(=O)CO)C[C@@H]3O[C@H]1C[C@H](N)[C@H](O)[C@H](C)O1 | 4.87 |
| c1ccc(CNC(c2ccc[nH]2)c2nnc(-c3ccccc3)o2)cc1 (stereo not given) | 3.73 |
| COc1ccc(-c2nnc(C(NCc3ccc(F)cc3)c3ccc[nH]3)o2)cc1 (stereo not given) | 4.28 |
| Clc1ccc(-c2nnc(C(NCc3ccccc3)c3ccc[nH]3)o2)cc1 (stereo not given) | 4.13 |
| Cc1cccc(-c2nnc(C(NCc3ccccc3)c3ccc[nH]3)o2)c1 (stereo not given) | 3.37 |
| Fc1cc(-c2nnc(C(NCc3ccccc3)c3ccc[nH]3)o2)c(Cl)cc1Cl (stereo not given) | 4.56 |
| COc1ccccc1CNC(c1ccc[nH]1)c1nnc(-c2ccccc2)o1 (stereo not given) | 3.44 |
| Clc1cccc(-c2nnc(C(NCc3ccccc3)c3ccc[nH]3)o2)c1 (stereo not given) | 4.21 |
| Cc1ccc(CNC(c2ccc[nH]2)c2nnc(-c3ccc(Br)cc3)o2)cc1 (stereo not given) | 4.27 |
| COc1ccc(CNC(c2ccc[nH]2)c2nnc(-c3ccccc3)o2)cc1 (stereo not given) | 3.56 |
